Measurement record for c-MET (Homo sapiens, UniProt P08581); quantity recorded: pKi.
pKi: −log10 of the molar value.
parameter: pKi

• Nc1ncc(C2=CCN(Cc3cccnc3)CC2)cc1-c1nnnn1-c1cccc(F)c1F [I-A-644] = 6.00 to 7.00
• Nc1ncc(-c2cnn(C3CCN(CC4CCC4)CC3)c2)cc1-c1nnnn1-c1cccc(Cl)c1F [I-A-473] = ≥ 7.00
• N#Cc1cc(-c2cnc(N)c(-c3nnnn3-c3cccc(F)c3F)c2)ccc1N1CCCC1 [I-A-336] = 6.00 to 7.00
• Nc1ncc(-c2cnn([C@@H]3CCNC3)c2)nc1-c1nnnn1-c1cccc(F)c1F [I-A-660] = ≥ 7.00
• Nc1ncc(-c2cnn(C3CCNCC3)c2)cc1-c1nc2cccnc2n1-c1cccc(F)c1F [I-D-7] = ≥ 7.00
• Nc1nc2cc(F)c(-c3cnc(N)c(-c4nnnn4-c4cccc(F)c4F)n3)cc2[nH]1 [I-A-52] = ≥ 7.00
• CCNC(=O)Nc1ccc(-c2cnc(N)c(-c3nnnn3-c3cccc(F)c3F)c2)cc1 [I-A-281] = ≥ 7.00
• Nc1ncc(-c2ccc(CN3CCC[C@@H]3CN3CCCC3)cc2)cc1-c1nnnn1-c1cccc(Cl)c1Cl [I-A-118] = ≥ 7.00

----------
- target: c-MET (Homo sapiens)
- Sequence (P08581 25-1390): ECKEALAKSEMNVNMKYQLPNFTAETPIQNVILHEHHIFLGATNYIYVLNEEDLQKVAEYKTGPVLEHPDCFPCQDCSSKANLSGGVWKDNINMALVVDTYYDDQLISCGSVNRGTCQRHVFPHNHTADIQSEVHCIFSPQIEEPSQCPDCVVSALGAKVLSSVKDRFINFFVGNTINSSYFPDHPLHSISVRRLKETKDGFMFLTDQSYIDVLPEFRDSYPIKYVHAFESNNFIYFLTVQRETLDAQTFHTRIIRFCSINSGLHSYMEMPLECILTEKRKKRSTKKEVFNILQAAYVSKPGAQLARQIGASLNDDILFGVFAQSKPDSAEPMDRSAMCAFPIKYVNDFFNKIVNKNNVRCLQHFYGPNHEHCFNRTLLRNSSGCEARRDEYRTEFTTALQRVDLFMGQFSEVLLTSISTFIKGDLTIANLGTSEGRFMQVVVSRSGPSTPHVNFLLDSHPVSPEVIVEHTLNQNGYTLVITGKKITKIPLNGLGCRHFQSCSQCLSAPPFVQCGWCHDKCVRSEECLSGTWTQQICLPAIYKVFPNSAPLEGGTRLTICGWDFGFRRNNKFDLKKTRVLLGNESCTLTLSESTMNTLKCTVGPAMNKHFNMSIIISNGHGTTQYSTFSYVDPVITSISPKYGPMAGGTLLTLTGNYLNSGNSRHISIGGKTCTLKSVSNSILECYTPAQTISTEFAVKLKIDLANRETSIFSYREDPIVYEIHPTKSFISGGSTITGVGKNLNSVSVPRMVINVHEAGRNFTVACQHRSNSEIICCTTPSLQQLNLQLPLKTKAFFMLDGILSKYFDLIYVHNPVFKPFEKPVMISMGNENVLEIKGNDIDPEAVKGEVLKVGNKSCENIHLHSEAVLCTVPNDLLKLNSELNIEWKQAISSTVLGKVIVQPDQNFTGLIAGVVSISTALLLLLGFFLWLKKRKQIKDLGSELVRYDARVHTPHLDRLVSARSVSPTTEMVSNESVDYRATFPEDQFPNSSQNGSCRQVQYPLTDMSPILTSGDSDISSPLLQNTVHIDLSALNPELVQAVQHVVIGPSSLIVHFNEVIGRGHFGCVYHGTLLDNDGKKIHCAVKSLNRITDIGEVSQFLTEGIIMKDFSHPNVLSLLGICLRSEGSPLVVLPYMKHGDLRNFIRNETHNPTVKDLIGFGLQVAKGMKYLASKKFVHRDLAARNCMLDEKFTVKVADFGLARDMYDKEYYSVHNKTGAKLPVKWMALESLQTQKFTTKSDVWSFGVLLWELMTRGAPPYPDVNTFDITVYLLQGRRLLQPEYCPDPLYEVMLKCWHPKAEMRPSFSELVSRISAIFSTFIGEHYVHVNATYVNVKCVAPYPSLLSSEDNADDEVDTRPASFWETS
Recorded Ki, one value per entry.
parameter: Ki

• Nc1ncc(-c2ccc(C3CCOC(=O)N3)cc2)cc1-c1nnnn1-c1cccc(F)c1F (centres unmarked) [I-A-325] = ≤ 100 nM
• CC1(C)CN(c2cccc(-c3cnc(N)c(-c4nnnn4-c4cccc(F)c4F)c3)c2)C1=O [I-A-324] = 100 to 1000 nM
• CC(c1ccc(-c2cnc(N)c(-c3nnnn3-c3cccc(F)c3F)c2)s1)N1CCCC1 (centres unmarked) [I-A-262] = ≤ 100 nM
• Nc1ncc(-c2cnn(C3CCN(CC4CC4)CC3)c2)cc1-c1nnnn1-c1cccc(Cl)c1F [I-A-472] = ≤ 100 nM
• CN(C)CCn1cc(-c2cnc(N)c(-c3nnnn3-c3cccc(F)c3F)c2)cn1 [I-A-406] = ≤ 100 nM
• Nc1ncc(-c2ccc(O)c(F)c2)cc1-c1nnnn1-c1cccc(F)c1F [I-A-295] = ≤ 100 nM
• CCNC(=O)Nc1nc2cc(-c3cnc(N)c(-c4nnnn4-c4cccc(Cl)c4Cl)c3)c(F)cc2[nH]1 [I-A-93] = 100 to 1000 nM
• Nc1ncc(-c2ccc(C3CCNCC3)s2)cc1-c1nnnn1-c1cccc(F)c1F [I-A-415] = ≤ 100 nM

----------
Measurement record for c-MET (Homo sapiens); quantity recorded: Ki.
parameter: Ki

- Nc1ncc(-c2cccc(CN3CCCC3)c2)cc1-c1nnnn1-c1cccc(Cl)c1Cl [I-A-109]: ≤ 100 nM
- Nc1ncc(-c2ccc(CO)cc2)cc1-c1nncn1-c1cccc(Cl)c1Cl [I-A-78]: 100 to 1000 nM
- CC(C)CN1CCC(n2cc(-c3cnc(N)c(-c4nnnn4-c4cccc(Cl)c4F)c3)cn2)CC1 [I-A-475]: ≤ 100 nM
- CC(=O)Nc1ccc(-c2cnc(N)c(-c3nnnn3-c3c(F)cccc3Cl)c2)cc1 [I-A-639]: 100 to 1000 nM
- CC(=O)Nc1cccc(-c2cnc(N)c(-c3nnnn3-c3c(F)cccc3Cl)c2)c1 [I-A-612]: 100 to 1000 nM
- Nc1ncc(-c2cnn(CC(O)CO)c2)cc1-c1nnnn1-c1cccc(F)c1F (centres unmarked) [I-A-368]: ≤ 100 nM
- CS(=O)(=O)NCc1ccc(-c2cnc(N)c(-c3nnnn3-c3cccc(F)c3F)c2)cc1 [I-A-192]: ≤ 100 nM
- CN1CCC[C@H]1C(=O)N1CC=C(c2cnc(N)c(-c3nnnn3-c3cccc(F)c3F)c2)CC1 [I-A-503]: ≤ 100 nM
- Nc1ncc(-c2ccc(C(=O)NC3CC3)cc2)cc1-c1nnnn1-c1cccc(F)c1F [I-A-137]: ≤ 100 nM
- Nc1ncc(-c2cnn(C3CCNCC3)c2)cc1-c1nnnn1-c1c(Cl)cccc1Cl [I-A-631]: ≤ 100 nM
- Nc1ncc(-c2ccc3nccnc3c2)cc1-c1nnnn1-c1cccc(F)c1F [I-A-304]: 100 to 1000 nM
- Nc1ncc(C2=CCN(C(=O)[C@H]3CCC(=O)N3)CC2)cc1-c1nnnn1-c1cccc(F)c1F [I-A-657]: ≤ 100 nM
- CN1CCN(C(=O)Nc2cccc(-c3cnc(N)c(-c4nnnn4-c4cccc(F)c4F)c3)c2)CC1 [I-A-270]: 100 to 1000 nM
- COCCOC(=O)Nc1ccc(-c2cnc(N)c(-c3nnnn3-c3cccc(F)c3F)c2)cc1 [I-A-277]: ≤ 100 nM
- Nc1ncc(-c2cn(C3CCNCC3)nn2)cc1-c1nnnn1-c1cccc(F)c1F [I-A-483]: ≤ 100 nM
- Nc1ncc(-c2cnn(C3CCNCC3)c2)cc1-c1nnnn1-c1cc(F)cc(F)c1 [I-A-627]: 100 to 1000 nM
- COc1cc(-c2cnc(N)c(-c3nnnn3-c3cccc(F)c3F)c2)ccc1O [I-A-299]: ≤ 100 nM
- Nc1ncc(C2=CCN(C3CCNCC3)CC2)cc1-c1nnnn1-c1cccc(F)c1F [I-A-424]: 100 to 1000 nM
- Nc1ncc(-c2cccc(NC(=O)C3CC3)c2)cc1-c1nnnn1-c1cccc(F)c1F [I-A-261]: ≤ 100 nM
- Nc1ncc(-c2cnc3[nH]ccc3c2)cc1-c1nnnn1-c1cccc(Cl)c1Cl [I-A-92]: ≤ 100 nM
- Nc1ncc(-c2ccc(N3CCCC3)nc2)cc1-c1nnnn1-c1cccc(Cl)c1Cl [I-A-82]: 100 to 1000 nM
- Nc1ncc(-c2ccc(CN3CCCC3)c(O)c2)cc1-c1nnnn1-c1cccc(F)c1F [I-A-391]: ≤ 100 nM
- Nc1ncc(-c2nc3c(s2)CNCC3)cc1-c1nnnn1-c1cccc(F)c1F [I-A-465]: 100 to 1000 nM
- Nc1ncc(-c2ccc(N3CCCC3)nc2)cc1-c1nnsc1-c1cccc(Cl)c1Cl [I-C-4]: 100 to 1000 nM
- CCOc1cccc(-c2cnc(N)c(-c3nncn3-c3cccc(F)c3F)n2)c1 [I-A-31]: 100 to 1000 nM
- Nc1ncc(-c2ccco2)cc1-c1nnnn1-c1cccc(F)c1F [I-A-488]: 100 to 1000 nM
- NCc1ccc(-c2cnc(N)c(-c3nnnn3-c3cccc(F)c3F)c2)cc1 [I-A-202]: ≤ 100 nM
- Nc1ncc(-c2ccc(CN3CCC(O)CC3)cc2)cc1-c1nnnn1-c1cccc(Cl)c1Cl [I-A-97]: ≤ 100 nM
- Nc1ncc(-c2cnn(C3COCOC3)c2)cc1-c1nnnn1-c1cccc(F)c1F [I-A-432]: ≤ 100 nM
- Nc1ncc(-c2cccnc2)cc1-c1nnnn1-c1cccc(Cl)c1Cl [I-A-83]: 100 to 1000 nM
- COC(=O)c1cccc(-c2cnc(N)c(-c3nnnn3-c3cccc(F)c3F)c2)c1 [I-A-317]: 100 to 1000 nM
- CC(=O)N1CCN(Cc2ccc(-c3cnc(N)c(-c4nc5cnccc5n4-c4cccc(F)c4F)c3)cc2)CC1 [I-D-6]: ≤ 100 nM
- CCC(=O)N1CC=C(c2cnc(N)c(-c3nnnn3-c3cccc(F)c3F)c2)CC1 [I-A-511]: ≤ 100 nM
- CC(=O)N1CCC(n2cc(-c3cnc(N)c(-c4nncn4-c4cccc(Cl)c4F)c3)cn2)CC1 [I-A-450]: ≤ 100 nM
- CN(C(=O)Nc1ccc(-c2cnc(N)c(-c3nnnn3-c3cccc(F)c3F)c2)cc1)c1ccccc1 [I-A-279]: 100 to 1000 nM
